The following compounds are listed with their measured pIC50 values.
# System: MDA-MB-231-BCRP clone 23 cells
# assay summary: Resazurin reduction cytotoxicity assay
# condition parameters: MDA-MB-231/BCRP, 72 h
pIC50: −log10 of the molar value.

- compound: "O=c1cc(-c2ccc(O)cc2)oc2ccc(O)cc12"
  sign qualifier: "="
  pIC50: 4.39
- compound: "C=C(C)[C@@H]1CC[C@]2(C(=O)O)CC[C@]3(C)[C@H](CC[C@@H]4[C@@]5(C)CC[C@H](O)C(C)(C)[C@@H]5CC[C@]43C)[C@@H]12"
  sign qualifier: "="
  pIC50: 4.60
- compound: "COc1cccc2c1C(=O)c1c(O)c3c(c(O)c1C2=O)C[C@@](O)(C(=O)CO)C[C@@H]3O[C@H]1C[C@H](N)[C@H](O)[C@H](C)O1 [Doxorubicin, doxorubicin, reference compound]"
  sign qualifier: "="
  pIC50: 6.10
- compound: "CCCCCCCCCCCCCCCCCCCCCCCCCC(=O)OCC(O)CO (centres unmarked) [Compound 2, glyceryl-1-hexacosanoate]"
  sign qualifier: "<"
  pIC50: 4.00
- compound: "O=c1cc(-c2ccc(O)cc2)oc2cc(O)ccc12"
  sign qualifier: "="
  pIC50: 4.10
